Value source: paper PMC4051630

target: CDK2 + Cyclin A (Homo sapiens, UniProt P24941); construct: CDK2 (P24941); 1–299; His-tag; made in house; host or cells: Escherichia coli; experiment: Differential Scanning Fluorimetry (DSF) Tm shift; type: binding; details: CDK2 + Cyclin A; 2 µM protein, 10 µM inhibitor; average of 3 experiments, each in duplicate
property measured: Melting temperature (Tm) shift (degrees Celcius)
Give the value in degrees Celcius but do not write degrees Celcius after it.

Recorded Melting temperature (Tm) shift, per entry:
compound smiles	measured on	Melting temperature (Tm) shift, degrees Celcius
O=C1NC(=O)C(=Cc2ccc(-c3ccc(F)cc3O)o2)S1	CDK2 + Cyclin A (Homo sapiens, UniProt P24941)	0.2
CC(C)c1nn(-c2c(Cl)cccc2Cl)c2nc(Cc3ccc(OCCO)cc3)[nH]c(=O)c12	CDK2 + Cyclin A (Homo sapiens, UniProt P24941)	7.5
N#Cc1cnc2cnc(NCc3cccnc3)cc2c1Nc1ccc(F)c(Cl)c1	CDK2 + Cyclin A (Homo sapiens, UniProt P24941)	0.2
Cc1cc(C=C2C(=O)C=CC2=O)cc(C)c1O	CDK2 + Cyclin A (Homo sapiens, UniProt P24941)	0.4

We next turn to a different molecule, shown below.
Observed Melting temperature (Tm) shift on CDK2 + Cyclin A (Homo sapiens, UniProt P24941), entry Cc1cc(Nc2nc(-c3ccccc3)nc3ccccc23)n[nH]1 , equals 0.3

---

Target: STK3 Catalytic Domain (Homo sapiens, UniProt Q13188)
Construct: For all of them, we expressed and purified the catalytic domain separately; His-tag; made in house; host or cells: Escherichia coli
Sequence (Q13188 27-278 limits assumed): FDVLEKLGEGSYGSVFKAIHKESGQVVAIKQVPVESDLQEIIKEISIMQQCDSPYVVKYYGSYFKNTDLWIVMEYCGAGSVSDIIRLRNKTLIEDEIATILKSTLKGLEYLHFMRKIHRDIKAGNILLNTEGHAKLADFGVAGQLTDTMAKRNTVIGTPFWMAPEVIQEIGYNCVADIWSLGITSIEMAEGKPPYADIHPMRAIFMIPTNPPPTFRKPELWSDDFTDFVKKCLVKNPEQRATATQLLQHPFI
Assay: Differential Scanning Fluorimetry (DSF) Tm shift
Type: binding
Conditions: 2 µM protein, 10 µM inhibitor, average of 3 experiments, each in duplicate
Below, each entry is listed alongside its reported Melting temperature (Tm) shift.
Give the value in degrees Celcius but do not write degrees Celcius after it.

compound smiles	result
Nc1ncnc2c1c(I)cn2[C@@H]1O[C@H](CO)[C@@H](O)[C@H]1O	3.0

# Melting temperature (Tm) shift (molecule: Cc1nc(N)sc1-c1ccnc(Nc2cccc([N+](=O)[O-])c2)n1 ) is 0.7

# Melting temperature (Tm) shift (molecule: Cn1cc(/C=C2\C(=O)Nc3ccc(S(N)(=O)=O)cc32)c2ccccc21 ) is 2.0

# Melting temperature (Tm) shift (molecule: NC(=O)Nc1sc(-c2ccccc2)cc1C(N)=O ) is 2.4

---

target: CDK2 + Cyclin A (Homo sapiens); construct: CDK2 (P24941); 1–299; His-tag; made in house; host or cells: Escherichia coli; experiment: Differential Scanning Fluorimetry (DSF) Tm shift; assay type: binding; conditions: CDK2 + Cyclin A; 2 µM protein, 10 µM inhibitor; average of 3 experiments, each in duplicate
Below, each entry is listed alongside its reported Melting temperature (Tm) shift.
Give the value in degrees Celcius but do not write degrees Celcius after it.

compound	Melting temperature (Tm) shift [degrees Celcius]
CCN(CC)CCNC(=O)c1c(C)[nH]c(/C=C2\C(=O)Nc3ccc(Cl)cc32)c1C	0.6

# Melting temperature (Tm) shift (compound: O=C1NC(=O)C(=Cc2cccc(C(F)(F)F)c2)S1 ) is 0.3

# Melting temperature (Tm) shift (compound: CC(C)n1cnc2c(NCc3ccccc3O)nc(NCCCO)nc21 ) is 3.6

# Melting temperature (Tm) shift (compound: Nc1ncnc2c1c(I)cn2[C@@H]1O[C@H](CO)[C@@H](O)[C@H]1O ) is 2.5

# Melting temperature (Tm) shift (compound: CCN1/C(=C/C(C)=O)Sc2ccc(OC)cc21 ) is 0.0

# Melting temperature (Tm) shift (compound: CCCCc1c(-c2ccc(O)cc2)[nH]c2nccnc12 ) is 2.5

# Melting temperature (Tm) shift (compound: O.O=C1NCCc2[nH]c(-c3ccnc(-c4cnc5ccccc5c4)c3)cc21 ) is 0.1

# Melting temperature (Tm) shift (compound: COc1cc2ncnc(Nc3ccc(OCc4ccccc4)cc3)c2cc1OC ) is 0.0

# Melting temperature (Tm) shift (compound: CC(C)(C)c1nc2c3cc[nH]c(=O)c3c3cc(F)ccc3c2[nH]1 ) is 0.0

# Melting temperature (Tm) shift (compound: Cl.NCCCn1cc(C2=C(c3c[nH]c4ccccc34)C(=O)NC2=O)c2ccccc21 [Bisindolylmaleimide III, Hydrochloride] ) is 2.1

# Melting temperature (Tm) shift (compound: O=C(c1cc2cc(O)ccc2[nH]1)c1cc2cc(O)ccc2[nH]1 ) is 0.9

# Melting temperature (Tm) shift (compound: O=C1Nc2ccc3ncsc3c2/C1=C/c1cnc[nH]1 ) is 4.4

# Melting temperature (Tm) shift (compound: Cl.Cl.O=S(=O)(NCCNC/C=C/c1ccc(Br)cc1)c1cccc2cnccc12 [H-89, Dihydrochloride] ) is 0.5

# Melting temperature (Tm) shift (compound: O=C1Cc2c([nH]c3ccc([N+](=O)[O-])cc23)-c2ccccc2N1 ) is 0.4

# Melting temperature (Tm) shift (compound: NC(=O)Nc1cc(-c2ccccc2)sc1C(N)=O ) is 0.9

# Melting temperature (Tm) shift (compound: CCCCn1c2ccc(O)cc2c2c3c(c(-c4ccccc4Cl)cc21)C(=O)NC3=O ) is 0.1

# Melting temperature (Tm) shift (compound: O=C1NC(=O)C(c2cn(CCCn3ccnc3)c3ccccc23)=C1Nc1ccccc1 ) is 0.5

---

target: FAK2 Catalytic Domain (Homo sapiens); construct: For all of them, we expressed and purified the catalytic domain separately; His-tag; made in house; host or cells: Escherichia coli; test: Differential Scanning Fluorimetry (DSF) Tm shift; type: binding; conditions: 2 µM protein, 10 µM inhibitor, average of 3 experiments, each in duplicate
Sequence (Q14289 425-683 limits assumed): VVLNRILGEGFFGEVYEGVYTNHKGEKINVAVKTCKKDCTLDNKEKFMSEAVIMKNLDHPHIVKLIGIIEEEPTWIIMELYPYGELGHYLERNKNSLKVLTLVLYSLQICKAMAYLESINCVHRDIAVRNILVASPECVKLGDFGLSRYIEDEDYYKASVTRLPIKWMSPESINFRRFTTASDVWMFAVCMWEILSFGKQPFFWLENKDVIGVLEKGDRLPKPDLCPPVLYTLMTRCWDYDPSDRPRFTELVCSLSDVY
Below, each entry is listed alongside its reported Melting temperature (Tm) shift.
Give the value in degrees Celcius but do not write degrees Celcius after it.

Recorded Melting temperature (Tm) shift, per entry:
molecule	Melting temperature (Tm) shift, degrees Celcius
O=C1c2ccccc2-c2n[nH]c3cccc1c23	1.0
CCCCn1c2ccc(O)cc2c2c3c(c(-c4ccccc4Cl)cc21)C(=O)NC3=O	0.9
O=C1Nc2ccc3ncsc3c2/C1=C/c1cnc[nH]1	1.1

Observed Melting temperature (Tm) shift on FAK2 Catalytic Domain (Homo sapiens), entry Cn1cc(/C=C2\C(=O)Nc3ccc(S(N)(=O)=O)cc32)c2ccccc21 , equals 0.4

Observed Melting temperature (Tm) shift on FAK2 Catalytic Domain (Homo sapiens), entry Brc1c(Br)c(Br)c2n[nH]nc2c1Br , equals 0.1

Observed Melting temperature (Tm) shift on FAK2 Catalytic Domain (Homo sapiens), entry Nc1ncnc2c1c(I)cn2[C@@H]1O[C@H](CO)[C@@H](O)[C@H]1O , equals 0.4

Observed Melting temperature (Tm) shift on FAK2 Catalytic Domain (Homo sapiens), entry O=C1NC(=O)C(c2c[nH]c3ccccc23)=C1c1c[nH]c2ccccc12 [Bisindolylmaleimide IV] , equals 0.1

Observed Melting temperature (Tm) shift on FAK2 Catalytic Domain (Homo sapiens), entry COc1cc2nccc(Oc3ccc(NC(=S)NC(=O)c4ccccc4C)cc3)c2cc1OC , equals 1.0

Observed Melting temperature (Tm) shift on FAK2 Catalytic Domain (Homo sapiens), entry CC(C)n1cnc2c(NCc3ccccc3O)nc(NCCCO)nc21 , equals 0.0

Observed Melting temperature (Tm) shift on FAK2 Catalytic Domain (Homo sapiens), entry N#CCCc1ccc2c(c1)-c1[nH]c3ccc([N+](=O)[O-])cc3c1CC(=O)N2 , equals 0.6

Observed Melting temperature (Tm) shift on FAK2 Catalytic Domain (Homo sapiens), entry Nc1cccc(-c2cc3c(Oc4cccc(O)c4)ncnc3[nH]2)c1 , equals 1.5

Observed Melting temperature (Tm) shift on FAK2 Catalytic Domain (Homo sapiens), entry O=C1Cc2c([nH]c3ccc(Br)cc23)-c2ccccc2N1 , equals 0.3

Observed Melting temperature (Tm) shift on FAK2 Catalytic Domain (Homo sapiens), entry NC(=O)Nc1cc(-c2ccccc2)sc1C(N)=O , equals 1.5

Observed Melting temperature (Tm) shift on FAK2 Catalytic Domain (Homo sapiens), entry CN(C)CCCn1cc(C2=C(c3c[nH]c4ccccc34)C(=O)NC2=O)c2ccccc21 [Bisindolylmaleimide I] , equals 0.5

Observed Melting temperature (Tm) shift on FAK2 Catalytic Domain (Homo sapiens), entry CN1C(=O)C(=C2Nc3ccccc3C2=NO)c2ccc(Br)cc21 [GSK-3 Inhibitor IX, Control, MeBIO] , equals 0.1

Observed Melting temperature (Tm) shift on FAK2 Catalytic Domain (Homo sapiens), entry CN[C@@H]1C[C@H]2O[C@@](C)([C@@H]1OC)n1c3ccccc3c3c4c(c5c6ccccc6n2c5c31)C(=O)N[C@@H]4O , equals 5.9

Observed Melting temperature (Tm) shift on FAK2 Catalytic Domain (Homo sapiens), entry NC(=O)Nc1sc(-c2ccc(F)cc2)cc1C(N)=O , equals 1.2
